Provide the recorded viability, T/C for the entries that follow.
# System: 699152-130-R-J1-PDC complex spheroid viability;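 further: spheroids exposed to agents for 7 days before viability reading; percent of DMSO vehicle control viability so 100% = vehicle and 0% = no viable signal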
# protocol.description: Anticancer human tumor 699152-130-R-J1-PDC patient-derived pancreatic carcinoma cell line growth inhibition [POLQ]
# experimental.context: second compound 0.1 µM; first compound 1 µM; hits give low values

Illustrative cases are given below, each with its answer.
{"columns": ["compound", "viability, T/C"],
 "data": [
  ["C=CC(=O)N1CCN(c2nc(=O)n(-c3c(C)ccnc3C(C)C)c3nc(-c4c(O)cccc4F)c(F)cc23)C(C)C1 (stereo unspecified) + COC1C(OC(N)=O)C(O)C(Oc2ccc3c(O)c(NC(=O)c4ccc(O)c(CC=C(C)C)c4)c(=O)oc3c2C)OC1(C)C", "118%"],
  ["O=C(Nc1ccc(O)c(NS(=O)(=O)c2ccc(F)cc2)c1)c1ccc(-c2ccccc2)cc1 + Nc1ccc(C#CCN(C(=O)Cc2ncc(C(F)(F)F)cc2C(F)(F)F)c2ccc(F)cc2)nn1", "103%"],
  ["C=CCn1c(=O)c2cnc(Nc3ccc(N4CCN(C)CC4)cc3)nc2n1-c1cccc(C(C)(C)O)n1 + COC1C(OC(N)=O)C(O)C(Oc2ccc3c(O)c(NC(=O)c4ccc(O)c(CC=C(C)C)c4)c(=O)oc3c2C)OC1(C)C", "75%"],
  ["CCc1c2c(nc3ccc(O)cc13)-c1cc3c(c(=O)n1C2)COC(=O)[C@]3(O)CC + COC1C(OC(N)=O)C(O)C(Oc2ccc3c(O)c(NC(=O)c4ccc(O)c(CC=C(C)C)c4)c(=O)oc3c2C)OC1(C)C", "10.1%"],
  ["C=CCn1c(=O)c2cnc(Nc3ccc(N4CCN(C)CC4)cc3)nc2n1-c1cccc(C(C)(C)O)n1 + Cc1cccc(N(C)C(=O)C2C(O)CCN2c2nc(C)cc(C(F)(F)F)c2C#N)c1", "68.7%"],
  ["O=c1[nH]cc(F)c(=O)[nH]1 + Nc1ccc(C#CCN(C(=O)Cc2ncc(C(F)(F)F)cc2C(F)(F)F)c2ccc(F)cc2)nn1", "88.7%"]
]}

For each of the items listed, what is its viability, T/C?
1. CNCc1ccc(-c2[nH]c3cc(F)cc4c3c2CCNC4=O)cc1 + Cc1cccc(N(C)C(=O)C2C(O)CCN2c2nc(C)cc(C(F)(F)F)c2C#N)c1
2. C=CC(=O)N1CCN(c2nc(=O)n(-c3c(C)ccnc3C(C)C)c3nc(-c4c(O)cccc4F)c(F)cc23)C(C)C1 (stereo unspecified) + Nc1ccc(C#CCN(C(=O)Cc2ncc(C(F)(F)F)cc2C(F)(F)F)c2ccc(F)cc2)nn1
3. COc1cccc(OCCCN)c1-c1cc(Nc2cnc(C#N)cn2)n[nH]1 + COC1C(OC(N)=O)C(O)C(Oc2ccc3c(O)c(NC(=O)c4ccc(O)c(CC=C(C)C)c4)c(=O)oc3c2C)OC1(C)C
4. C#Cc1c(F)ccc2cc(O)cc(-c3ncc4c(N5CC6CCC(C5)N6)nc(OCC56CCCN5CC(F)C6)nc4c3F)c12 (stereo unspecified) + COC1C(OC(N)=O)C(O)C(Oc2ccc3c(O)c(NC(=O)c4ccc(O)c(CC=C(C)C)c4)c(=O)oc3c2C)OC1(C)C
5. O=C(c1cc(Cc2n[nH]c(=O)c3ccccc23)ccc1F)N1CCN(C(=O)C2CC2)CC1 + COC1C(OC(N)=O)C(O)C(Oc2ccc3c(O)c(NC(=O)c4ccc(O)c(CC=C(C)C)c4)c(=O)oc3c2C)OC1(C)C
6. CCc1cc2c(N3CCc4c(cc(Cn5ccnc5)cc4-c4cn(C)nc4C(F)(F)F)C3=O)ccnc2c(OC)n1 + COC1C(OC(N)=O)C(O)C(Oc2ccc3c(O)c(NC(=O)c4ccc(O)c(CC=C(C)C)c4)c(=O)oc3c2C)OC1(C)C

Result:
1. 103%
2. 116%
3. 48.6%
4. 11.4%
5. 43.9%
6. 87.6%
